test system: BT-549 breast; experiment: NCI-60 one-dose screen, 48 h (100 = growth as untreated, 0 = no growth, -100 = all killed); details: 10 µM unless noted
About 83,000 compounds went through this panel and 20% of them were active in at least one assay; those are over-represented in the sample as a whole.
MEASURED METRIC: growth (%)
All answers are understood in %, so give the number only.

I have this compound here, Clc1nc(N2CCC[N+]3(CC2)CC[N+]2(CCCNCC2)CC3)nc(N2CCC[N+]3(CC2)CC[N+]2(CCCNCC2)CC3)n1 (centres undefined) , and I need its recorded growth. 95.1

I have this compound here, `CCOC(=O)C#Cc1c(CC(=O)OCC)nnn1[C@H]1O[C@@H](CO)[C@@H]2OC(C)(C)O[C@@H]21` , and I need its recorded growth. 87.3

I have this compound here, `COc1ccccc1NC(=O)n1c(=O)cc(C)c2ccc(O)cc21` , and I need its recorded growth. 107

I have this compound here, `O=c1oc2ccccc2cc1-c1nn(-c2ccccc2)cc1/C=N/Nc1nc(-c2ccccc2)c(N=Nc2ccccc2)s1` , and I need its recorded growth. 61.8

I have this compound here, `C=C1/C(=C\C=C2/CCC[C@]3(C)[C@@H]([C@H](C)CCCC(C)(C)O)CC[C@@H]23)C[C@@H](OC(=O)CBr)C[C@@H]1O` , and I need its recorded growth. -58.1

I have this compound here, `Cc1cc2nc(C(Cl)Cl)nc(-c3ccccc3)n2n1` , and I need its recorded growth. 86.8

I have this compound here, `O=C(Cn1cc(CSc2nc3ccccc3o2)nn1)Nc1ccc([N+](=O)[O-])cc1` , and I need its recorded growth. 96.7

I have this compound here, Cc1nc2sc(C(=O)Nc3ccccc3)c(N)c2cc1C(O)c1ccccc1 (centres undefined) , and I need its recorded growth. 67.9

I have this compound here, `NCCCCCNc1noc(Cc2c[nH]c3cc(Br)ccc23)n1` , and I need its recorded growth. 44.9

----------
system: T-47D breast; assay: NCI-60 one-dose screen, 48 h (100 = growth as untreated, 0 = no growth, -100 = all killed); settings: 10 µM unless noted
The panel holds about 83,000 compounds, 20% with a hit somewhere; the sample as a whole holds those more often.
One threshold, 60%, splits the recorded growth values: lower ones are True, equal or higher ones are False.

Is growth strictly under 60% for the entry `Cc1[nH]c(C(=O)Nc2ccc(C(N)=O)cc2OC(C)C)c(Cl)c1Cl` ? False

Is growth strictly under 60% for the entry `COc1cc(C(=O)/C=C/c2c(-c3cccs3)nc3sc(C)cn23)cc(OC)c1OC` ? True

Is growth strictly under 60% for the entry `C=C1C(=O)O[C@H]2[C@H]1CC/C(CNC(=O)/C=C/c1cc(OC)c(OC)c(OC)c1)=C\CC[C@@]1(C)O[C@@H]21` ? True

Is growth strictly under 60% for the entry `O=C(Nc1ccccc1CNc1nc(Nc2ccc(OCCN3CCCC3)cc2)ncc1Cl)NC1CCCCC1` ? False

Is growth strictly under 60% for the entry N#C/C(=C\c1cccc2cnccc12)N1N=NC2C=CC=CC21 (centres undefined) ? True

Is growth strictly under 60% for the entry `CCc1ccc(Cc2cnc(NC(=O)c3cc(C)oc3C)s2)cc1` ? True

Is growth strictly under 60% for the entry Cc1ccc(S(=O)(=O)c2nc(-c3ccccc3)oc2S(C)=O)cc1 (centres undefined) ? True

Is growth strictly under 60% for the entry `C=CCn1c(SCC(=O)Nc2ccc(C(=O)/C=C/c3ccc(Cl)cc3)cc2)nnc1-c1ccccc1` ? False

Is growth strictly under 60% for the entry `CC(C)(C)c1ccc(C(=O)Nc2sc3c(c2C#N)CCC(=O)C3)cc1` ? True

Is growth strictly under 60% for the entry `CCN(CC)CCN1C(=O)c2c(c(C)c3c(oc4cc(OC)ccc43)c2C)C1=O` ? False

Is growth strictly under 60% for the entry `O=S(=O)(c1ccc(NCSc2nc3ccccc3s2)cc1)c1ccc(NCSc2nc3ccccc3s2)cc1` ? False

Is growth strictly under 60% for the entry `Cc1ccc2c(n1)C[C@H](C(C)(C)O)CC[C@H]2C` ? False

Is growth strictly under 60% for the entry `C=C(C)[C@@H]1CC[C@]2(C(=O)NC(C)=O)CC[C@]3(C)[C@H](CC[C@@H]4[C@@]5(C)CCCNC(C)(C)[C@@H]5CC[C@]43C)[C@@H]12` ? True

Is growth strictly under 60% for the entry `Cc1cc(C)n(C(=O)CSc2nc3sc4c(c3c(=O)n2-c2ccccc2)CCCCC4)n1` ? False

Is growth strictly under 60% for the entry `NC(=N\N=C/c1ccc(Cl)cc1Cl)/C(N)=N\N=C/c1ccc(Cl)cc1Cl` ? True

Is growth strictly under 60% for the entry `CO[C@H]1CC(c2ccc[nH]2)=N[C@]12O[C@@H](C)C[C@@H]1CCCCCCCc3ccc([nH]3)[C@H]12` ? True

Is growth strictly under 60% for the entry `CC/C(=C(/c1ccc(Cl)cc1)c1ccc(OCCN(CC)CC)cc1)c1ccc(OC)cc1` ? True

Is growth strictly under 60% for the entry `Cc1ccc(OCCOCCOCCOCCOc2ccc(C)n(O)c2=S)c(=S)n1O` ? True

Is growth strictly under 60% for the entry `CCN1CCN(c2nc(NNC(=O)c3ccc(OC)cc3)nc(N3CCN(C(c4ccccc4)c4ccccc4)CC3)n2)CC1` ? True
